Molecular target: GST-TDP-43 (7-414) (Homo sapiens, UniProt Q13148 SEQ:7-414)
Sequence (Q13148 7-414): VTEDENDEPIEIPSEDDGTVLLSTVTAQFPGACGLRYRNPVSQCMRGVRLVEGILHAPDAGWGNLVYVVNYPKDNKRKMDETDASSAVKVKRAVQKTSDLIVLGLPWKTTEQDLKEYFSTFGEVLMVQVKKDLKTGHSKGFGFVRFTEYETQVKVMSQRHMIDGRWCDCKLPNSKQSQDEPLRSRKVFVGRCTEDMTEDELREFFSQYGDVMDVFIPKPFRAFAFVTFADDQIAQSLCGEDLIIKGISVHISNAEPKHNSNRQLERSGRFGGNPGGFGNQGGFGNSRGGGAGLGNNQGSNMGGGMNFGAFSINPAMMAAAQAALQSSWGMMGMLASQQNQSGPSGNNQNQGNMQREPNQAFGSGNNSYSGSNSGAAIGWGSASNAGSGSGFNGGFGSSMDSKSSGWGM
Experiment: competition; up to 50x excess did not compete
Conditions: tags: N-terminal GST
ASSAY READOUT: binding result

1. HIV-1 LTR -18/+28 delta1 (dsDNA) DNA 1: CTGACGTACGTACGTACTGGGTCTCTCTGGTTAGACCAGATCT DNA 2: AGATCTGGTCTAACCAGAGAGACCCAGTACGTACGTACGTCAG : no binding
2. HIV-1 LTR -18/+28 delta1+delta2 (dsDNA) DNA 1: CTGACGTACGTACGTACGTACATGCGTACGTTACGGACCATCT DNA 2: AGATGGTCCGTAACGTACGCATGTACGTACGTACGTACGTCAG : no binding
3. HIV-1 LTR -18/+28 delta2 (dsDNA) DNA 1: CTGCTTTTTGCCTGTACGTACATGCGTACGTTAGACCAGATCT DNA 2: AGATCTGGTCTAACGTACGCATGTACGTACAGGCAAAAAGCAG : no binding
4. AdMLP TATA (dsDNA) DNA 1: AAGGGGGGCTATAAAAGGGGGTGGGGG DNA 2: CCCCCACCCCCTTTTATAGCCCCCCTT : no binding
